Quick reference: log10 MTD at 4 days of the listed items.
# measurement_protocol: Determination of Maximum Tolerated Dose (MTD)
# test_context: female, C57BL/6, mouse, in vivo, po
recorded_endpoint: log10 MTD at 4 days (log10 of the value in mg/kg)

{"molecule": "CC(=O)OC1C/C(=C/C=C2\\CCC[C@]3(C)C(C(C)C/C=C\\C(O)(C(F)(F)F)C(F)(F)F)=CCC23)C[C@@H](OC(C)=O)C1 (stereo partly shown)", "log10 MTD at 4 days": -4.00}
{"molecule": "CC(=O)OC1C/C(=C/C=C2\\CCC[C@]3(C)C(C4(CCCC(C)(C)O)CC4)=CCC23)C[C@@H](OC(C)=O)C1 (stereo partly shown)", "log10 MTD at 4 days": -2.00}
{"molecule": "C=C1/C(=C\\C=C2/CCC[C@@]3(C)C2CCC3C2(CCCC(C)(C)O)CC2)C[C@@H](OC(C)=O)C[C@@H]1OC(C)=O (stereo partly shown)", "log10 MTD at 4 days": -1.52}
{"molecule": "C=C1/C(=C\\C=C2/CCC[C@]3(C)[C@@H]([C@H](C)CCCC(C)(C)O)CC[C@@H]23)C[C@@H](O)C[C@@H]1O [Calcitriol, 1,25-dihydroxycholecalciferol, reference compound]", "log10 MTD at 4 days": -3.00}
{"molecule": "CC(=O)OC1C/C(=C/C=C2\\CCC[C@]3(C)C(C(C)CC#CC(O)(C(F)(F)F)C(F)(F)F)=CCC23)C[C@@H](OC(C)=O)C1 (stereo partly shown)", "log10 MTD at 4 days": -2.00}
{"molecule": "CCC(O)(C#CCC(C)C1=CCC2/C(=C/C=C3/CC(OC(C)=O)C[C@H](OC(C)=O)C3)CCC[C@]12C)CC (stereo partly shown)", "log10 MTD at 4 days": -1.00}
{"molecule": "CC(=O)OC1C/C(=C/C=C2\\CCC[C@]3(C)C(C(C)CC#CC(OC(C)=O)(C(F)(F)F)C(F)(F)F)=CCC23)C[C@@H](OC(C)=O)C1 (stereo partly shown)", "log10 MTD at 4 days": -2.52}
{"molecule": "CC(=O)OC1C/C(=C/C=C2\\CCC[C@@]3(C)C2CCC3C2(CC#CC(OC(C)=O)(C(F)(F)F)C(F)(F)F)CC2)C[C@@H](OC(C)=O)C1 (stereo partly shown)", "log10 MTD at 4 days": -2.00}
{"molecule": "C=C1/C(=C\\C=C2/CCC[C@]3(C)C(C(C)CC#CC(C)(C)O)=CCC23)CC(OC(C)=O)C[C@@H]1OC(C)=O (stereo partly shown)", "log10 MTD at 4 days": -2.00}
{"molecule": "C=C1/C(=C\\C=C2/CCC[C@]3(C)C(C4(CCCC(C)(C)O)CC4)=CCC23)CC(OC(C)=O)C[C@@H]1OC(C)=O (stereo partly shown)", "log10 MTD at 4 days": -2.52}
{"molecule": "CC(=O)OC1C/C(=C/C=C2\\CCC[C@@]3(C)C2CCC3C2(CC#CC(O)(C(F)(F)F)C(F)(F)F)CC2)C[C@@H](OC(C)=O)C1 (stereo partly shown)", "log10 MTD at 4 days": -2.00}
{"molecule": "C=C1/C(=C\\C=C2/CCC[C@]3(C)C(C(C)CC#CC(O)(C(F)(F)F)C(F)(F)F)=CCC23)CC(OC(C)=O)C[C@@H]1OC(C)=O (stereo partly shown)", "log10 MTD at 4 days": -2.00}
{"molecule": "CC(=O)OC1C/C(=C/C=C2\\CCC[C@@]3(C)C2CCC3C2(C/C=C/C(O)(C(F)(F)F)C(F)(F)F)CC2)C[C@@H](OC(C)=O)C1 (stereo partly shown)", "log10 MTD at 4 days": -3.52}
{"molecule": "C=C1/C(=C\\C=C2/CCC[C@@]3(C)C2CCC3C2(CC#CC(C)(C)O)CC2)CC(OC(C)=O)C[C@@H]1OC(C)=O (stereo partly shown)", "log10 MTD at 4 days": -1.52}
{"molecule": "C=C1/C(=C\\C=C2/CCC[C@@]3(C)C2CCC3C(C)CC#CC(C)(C)O)CC(OC(C)=O)C[C@@H]1OC(C)=O (stereo partly shown)", "log10 MTD at 4 days": -3.00}
{"molecule": "C=C1/C(=C\\C=C2/CCC[C@]3(C)C(C(C)CC#CC(OC(C)=O)(C(F)(F)F)C(F)(F)F)=CCC23)CC(OC(C)=O)C[C@@H]1OC(C)=O (stereo partly shown)", "log10 MTD at 4 days": -2.52}
